Tested on: oxazolone-induced ear swelling (MOCH) in albino male CD-1 mice
Run Description: mouse oxazolone-induced contact hypersensitization (MOCH) ear swelling
Format: in vivo
Experimental Setup: topical to mouse ear, 1 mg, one hour after oxazolone challenge, ear biopsy weight at 24 hours
Give measured Oxazolone Ear Swelling (MOCH) % inhibition vs. Vehicle at 1 mg for each item. Keep answers brief.
Write it as a number; the unit % goes unstated.

Q: Entry under review: O=C(Cc1ccccc1C(F)(F)F)NCC(c1ccccc1)C1c2ccccc2-c2ccccc21 (stereo not shown) . Reported Oxazolone Ear Swelling (MOCH) % inhibition vs. Vehicle at 1 mg?
Ans: 43

Q: // query Oxazolone Ear Swelling (MOCH) % inhibition vs. Vehicle at 1 mg value for entry O=C(NCC(c1ccccc1)C(c1ccccc1)c1ccccc1)Nc1ccccc1 (stereo not shown)
Ans: 30

Q: Which Oxazolone Ear Swelling (MOCH) % inhibition vs. Vehicle at 1 mg reading was recorded for the molecule O=C(Cc1ccccc1Cl)NCC(c1ccccc1)C1c2ccccc2-c2ccccc21 (stereo not shown) ?
Ans: 28

Q: Which value of Oxazolone Ear Swelling (MOCH) % inhibition vs. Vehicle at 1 mg has been reported for O=C(NCc1ccccc1)NCC1(c2ccccc2)CC1(c1ccccc1)c1ccccc1 (stereo not shown) in the records?
Ans: 16

* * *

Assign log10 of IC50 to each entry below.
Tgt: human glucocorticoid receptor (hGR) (Homo sapiens, UniProt P04150)
Sequence (P04150 1-777): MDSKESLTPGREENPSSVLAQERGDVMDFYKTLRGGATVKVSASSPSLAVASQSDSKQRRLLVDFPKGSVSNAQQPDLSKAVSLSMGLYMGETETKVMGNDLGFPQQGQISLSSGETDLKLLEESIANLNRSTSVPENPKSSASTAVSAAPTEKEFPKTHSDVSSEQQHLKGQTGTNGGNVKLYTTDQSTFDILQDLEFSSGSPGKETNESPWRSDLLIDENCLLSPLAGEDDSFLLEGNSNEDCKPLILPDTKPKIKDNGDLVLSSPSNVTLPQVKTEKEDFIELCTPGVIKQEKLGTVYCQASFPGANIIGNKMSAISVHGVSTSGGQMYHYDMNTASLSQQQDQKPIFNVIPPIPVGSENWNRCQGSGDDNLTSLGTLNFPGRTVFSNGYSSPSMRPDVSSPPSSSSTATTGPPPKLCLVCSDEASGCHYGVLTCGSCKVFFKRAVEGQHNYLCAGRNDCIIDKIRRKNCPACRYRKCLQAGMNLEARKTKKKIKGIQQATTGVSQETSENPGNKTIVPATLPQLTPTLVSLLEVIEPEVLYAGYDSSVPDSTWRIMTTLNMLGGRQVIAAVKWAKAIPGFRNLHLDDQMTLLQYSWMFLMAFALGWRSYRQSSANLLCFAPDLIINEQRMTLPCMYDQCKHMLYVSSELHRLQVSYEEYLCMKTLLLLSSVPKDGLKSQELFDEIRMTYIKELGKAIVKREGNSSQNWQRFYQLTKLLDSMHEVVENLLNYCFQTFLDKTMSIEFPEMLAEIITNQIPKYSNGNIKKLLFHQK
Hi team, quick reminder: these entries are log10 of IC50 (µM).

Q: Tell me reported log10 of IC50 for O=C(Cc1ccsc1)NCC(c1ccccc1)C1c2ccccc2CCc2ccccc21 (stereo not shown) , tested with human glucocorticoid receptor (hGR) (Homo sapiens, UniProt P04150).
Ans: -0.24

Q: // map O=C(NCC1(c2ccccc2)CC1(c1ccccc1)c1ccccc1)Oc1ccc(Cl)cc1 (stereo not shown) to recorded log10 of IC50 (system: human glucocorticoid receptor (hGR) (Homo sapiens, UniProt P04150))
Ans: -0.80

Q: Give the reported log10 of IC50 for O=C(NCC1(c2ccccc2)CC1(c1ccccc1)c1ccccc1)C(c1ccccc1)c1ccccc1 (stereo not shown) (system: human glucocorticoid receptor (hGR) (Homo sapiens, UniProt P04150)).
Ans: -0.29

Q: What measured log10 of IC50 is associated with O=C(Cc1ccc(Cl)cc1)NCC(c1ccccc1)C(c1ccccc1)c1ccccc1 (stereo not shown) on human glucocorticoid receptor (hGR) (Homo sapiens, UniProt P04150)?
Ans: -0.32

Q: Query log10 of IC50 on human glucocorticoid receptor (hGR) (Homo sapiens, UniProt P04150) for O=C(NCc1ccccc1)NCC(c1ccccc1)C(c1ccccc1)c1ccccc1 (stereo not shown)
Ans: -0.66

Q: Query for human glucocorticoid receptor (hGR) (Homo sapiens, UniProt P04150): what log10 of IC50 does the record show for COc1ccc(CC(=O)NCC2(c3ccccc3)CC2(c2ccccc2)c2ccccc2)cc1OC (stereo not shown) ?
Ans: 0.00

Q: Could you share what log10 of IC50 was measured for O=C(NCC1(c2ccccc2)CC1(c1ccccc1)c1ccccc1)Oc1ccccc1 (stereo not shown) , tested on human glucocorticoid receptor (hGR) (Homo sapiens, UniProt P04150)?
Ans: -0.03

Q: What value of log10 of IC50 on human glucocorticoid receptor (hGR) (Homo sapiens, UniProt P04150) does O=C(Cc1ccccc1)NCC(c1ccccc1)C(c1ccc(F)cc1)c1ccc(F)cc1 (stereo not shown) have?
Ans: -1.68

Q: Return log10 of IC50 measured with human glucocorticoid receptor (hGR) (Homo sapiens, UniProt P04150) given this molecule: O=C(Cc1cccs1)NCC(c1cccs1)C(c1ccccc1)c1ccccc1 (stereo not shown)
Ans: -0.14

Q: What value of log10 of IC50 on human glucocorticoid receptor (hGR) (Homo sapiens, UniProt P04150) does O=C(Cc1ccccc1Cl)NCC(c1ccccc1)C(c1ccccc1)c1ccccc1 (stereo not shown) have?
Ans: -0.87

Q: Please state recorded log10 of IC50 (tested on human glucocorticoid receptor (hGR) (Homo sapiens, UniProt P04150)) of CCCCC(=O)NCC(c1ccccc1)C(c1ccccc1)c1ccccc1 (stereo not shown)
Ans: -0.92

Q: What value of log10 of IC50 on human glucocorticoid receptor (hGR) (Homo sapiens, UniProt P04150) does COc1ccccc1CCC(=O)NCC(c1ccccc1)C(c1ccc(F)cc1)c1ccc(F)cc1 (stereo not shown) have?
Ans: -1.66

Q: Request - read-out log10 of IC50 | tested on human glucocorticoid receptor (hGR) (Homo sapiens, UniProt P04150) | molecule O=S(=O)(Cc1ccccc1)NCC(c1ccccc1)C(c1ccccc1)c1ccccc1 (stereo not shown)
Ans: -0.68

Q: Report log10 of IC50 for O=C(NCC(c1ccccc1)C(c1ccccc1)c1ccccc1)C(c1ccccc1)c1ccccc1 (stereo not shown) tested on human glucocorticoid receptor (hGR) (Homo sapiens, UniProt P04150).
Ans: -0.11

Q: Quick check: log10 of IC50 on human glucocorticoid receptor (hGR) (Homo sapiens, UniProt P04150), item O=C(Cc1c[nH]c2ccccc12)NCC(c1ccccc1)C(c1ccccc1)c1ccccc1 (stereo not shown) ?
Ans: -0.38

Q: Notebook entry, human glucocorticoid receptor (hGR) (Homo sapiens, UniProt P04150) assay: log10 of IC50 of O=C(NCC1(c2ccccc2)CC1(c1ccccc1)c1ccccc1)Nc1ccccc1 (stereo not shown) = ?
Ans: 0.17

Q: Observed log10 of IC50 on human glucocorticoid receptor (hGR) (Homo sapiens, UniProt P04150) for O=C(Cc1cccc(C(F)(F)F)c1)NCC(c1ccccc1)C(c1ccccc1)c1ccccc1 (stereo not shown) , please.
Ans: -0.08

Q: State its log10 of IC50 on human glucocorticoid receptor (hGR) (Homo sapiens, UniProt P04150): O=C(Cc1cccs1)NCC1(c2ccccc2)CC1(c1ccccc1)c1ccccc1 (stereo not shown)
Ans: -0.37

Q: Value wanted: log10 of IC50 (human glucocorticoid receptor (hGR) (Homo sapiens, UniProt P04150)) of entry O=C(Cc1ccsc1)NCC(c1ccc(Cl)cc1)C(c1ccccc1)c1ccccc1 (stereo not shown)
Ans: -1.27

Q: Return log10 of IC50 measured with human glucocorticoid receptor (hGR) (Homo sapiens, UniProt P04150) given this molecule: O=C(CCc1ccccc1)NCC(c1ccccc1)C(c1ccccc1)c1ccccc1 (stereo not shown)
Ans: -0.85

Q: Which measured log10 of IC50 belongs to Cc1ccc(CC(=O)NCC(c2ccccc2)C(c2ccccc2)c2ccccc2)cc1 (stereo not shown) , tested on human glucocorticoid receptor (hGR) (Homo sapiens, UniProt P04150)?
Ans: -0.28

Q: Item O=C(Cc1cccs1)NCC(c1ccccc1)C(c1ccccc1)c1ccccc1 (stereo not shown) with human glucocorticoid receptor (hGR) (Homo sapiens, UniProt P04150) - log10 of IC50?
Ans: -2.10

Q: Form entry - test system: human glucocorticoid receptor (hGR) (Homo sapiens, UniProt P04150); read-out: log10 of IC50; molecule: CN(CC(c1ccccc1)C(c1ccccc1)c1ccccc1)C(=O)Cc1cccs1 (stereo not shown)
Ans: -0.88

Q: Could you share what log10 of IC50 was measured for O=C(NCC(c1ccccc1)C(c1ccccc1)c1ccccc1)Oc1ccc2ccccc2c1 (stereo not shown) , tested on human glucocorticoid receptor (hGR) (Homo sapiens, UniProt P04150)?
Ans: -0.81

Q: Item O=C(NCC1(c2ccccc2)CC1(c1ccccc1)c1ccccc1)c1cccs1 (stereo not shown) with human glucocorticoid receptor (hGR) (Homo sapiens, UniProt P04150) - log10 of IC50?
Ans: -0.21

Q: Please state recorded log10 of IC50 (tested on human glucocorticoid receptor (hGR) (Homo sapiens, UniProt P04150)) of O=C(NCC(c1ccccc1)C(c1ccccc1)c1ccccc1)Oc1ccccc1 (stereo not shown)
Ans: -0.51

Q: Recorded log10 of IC50 for O=C(Cc1ccccc1Cl)NCC1(c2ccccc2)CC1(c1ccccc1)c1ccccc1 (stereo not shown) with human glucocorticoid receptor (hGR) (Homo sapiens, UniProt P04150), please?
Ans: -0.02

Q: // map Cc1ccc(CC(=O)NCC(c2ccccc2)C(c2ccc(F)cc2)c2ccc(F)cc2)s1 (stereo not shown) to recorded log10 of IC50 (system: human glucocorticoid receptor (hGR) (Homo sapiens, UniProt P04150))
Ans: -2.15

Q: Give log10 of IC50 (human glucocorticoid receptor (hGR) (Homo sapiens, UniProt P04150)) of the following molecule: O=C(Cc1ccccn1)NCC(c1ccccc1)C(c1ccccc1)c1ccccc1 (stereo not shown)
Ans: -0.70

Q: Provide value of log10 of IC50 for this record tested with human glucocorticoid receptor (hGR) (Homo sapiens, UniProt P04150): CC(C)(C)C(=O)NCC(c1ccccc1)C(c1ccccc1)c1ccccc1 (stereo not shown)
Ans: -0.53

Q: Form field: log10 of IC50 recorded for O=C(Cc1cccs1)NCC(c1ccccc1)C1c2ccccc2-c2ccccc21 (stereo not shown) with human glucocorticoid receptor (hGR) (Homo sapiens, UniProt P04150) (enter value)
Ans: -0.09

Q: # query: log10 of IC50 | item O=C(NCC(c1ccccc1)C(c1ccccc1)c1ccccc1)Nc1ccccc1F (stereo not shown) | system: human glucocorticoid receptor (hGR) (Homo sapiens, UniProt P04150)
Ans: -0.53

Q: Lab request: please report log10 of IC50 under test system human glucocorticoid receptor (hGR) (Homo sapiens, UniProt P04150) for Cc1ccc(S(=O)(=O)CC(=O)NCC(c2ccccc2)C(c2ccccc2)c2ccccc2)cc1 (stereo not shown)
Ans: -1.24

Q: # query: log10 of IC50 | item O=C(NCC(c1ccccc1)C(c1ccccc1)c1ccccc1)Oc1ccc(F)cc1 (stereo not shown) | system: human glucocorticoid receptor (hGR) (Homo sapiens, UniProt P04150)
Ans: -0.62
